# Experimental Target: rh-α5β1 (Homo sapiens, UniProt P05556+P08648)
# Sequence (P08648 42-894 limits assumed): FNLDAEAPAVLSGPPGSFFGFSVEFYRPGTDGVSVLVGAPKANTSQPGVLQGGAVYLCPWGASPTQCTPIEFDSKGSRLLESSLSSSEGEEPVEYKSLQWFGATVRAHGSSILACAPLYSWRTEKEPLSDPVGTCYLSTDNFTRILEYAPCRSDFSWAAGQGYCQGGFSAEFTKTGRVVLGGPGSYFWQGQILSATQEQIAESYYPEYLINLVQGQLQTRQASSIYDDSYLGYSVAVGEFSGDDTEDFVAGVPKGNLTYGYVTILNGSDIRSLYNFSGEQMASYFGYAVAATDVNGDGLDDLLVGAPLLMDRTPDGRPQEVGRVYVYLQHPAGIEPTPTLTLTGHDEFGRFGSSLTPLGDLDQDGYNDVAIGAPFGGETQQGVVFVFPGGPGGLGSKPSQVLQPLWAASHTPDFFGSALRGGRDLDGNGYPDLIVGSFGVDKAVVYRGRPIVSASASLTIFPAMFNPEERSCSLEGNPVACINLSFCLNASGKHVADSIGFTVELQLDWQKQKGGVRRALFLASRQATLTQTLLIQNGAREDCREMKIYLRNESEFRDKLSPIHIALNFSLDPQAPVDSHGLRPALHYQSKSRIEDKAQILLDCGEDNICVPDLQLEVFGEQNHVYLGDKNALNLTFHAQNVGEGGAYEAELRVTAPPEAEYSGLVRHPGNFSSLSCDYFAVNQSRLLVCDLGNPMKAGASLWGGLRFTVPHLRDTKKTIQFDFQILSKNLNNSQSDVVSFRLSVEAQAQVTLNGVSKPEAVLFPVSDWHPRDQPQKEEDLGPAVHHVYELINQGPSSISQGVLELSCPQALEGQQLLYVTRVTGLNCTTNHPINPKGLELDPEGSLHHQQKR
# Sequence (P08648 895-995 limits assumed): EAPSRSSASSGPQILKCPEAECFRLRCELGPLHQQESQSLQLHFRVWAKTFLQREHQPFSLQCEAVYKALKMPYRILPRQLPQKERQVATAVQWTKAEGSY
# Sequence (P05556 21-728 limits assumed): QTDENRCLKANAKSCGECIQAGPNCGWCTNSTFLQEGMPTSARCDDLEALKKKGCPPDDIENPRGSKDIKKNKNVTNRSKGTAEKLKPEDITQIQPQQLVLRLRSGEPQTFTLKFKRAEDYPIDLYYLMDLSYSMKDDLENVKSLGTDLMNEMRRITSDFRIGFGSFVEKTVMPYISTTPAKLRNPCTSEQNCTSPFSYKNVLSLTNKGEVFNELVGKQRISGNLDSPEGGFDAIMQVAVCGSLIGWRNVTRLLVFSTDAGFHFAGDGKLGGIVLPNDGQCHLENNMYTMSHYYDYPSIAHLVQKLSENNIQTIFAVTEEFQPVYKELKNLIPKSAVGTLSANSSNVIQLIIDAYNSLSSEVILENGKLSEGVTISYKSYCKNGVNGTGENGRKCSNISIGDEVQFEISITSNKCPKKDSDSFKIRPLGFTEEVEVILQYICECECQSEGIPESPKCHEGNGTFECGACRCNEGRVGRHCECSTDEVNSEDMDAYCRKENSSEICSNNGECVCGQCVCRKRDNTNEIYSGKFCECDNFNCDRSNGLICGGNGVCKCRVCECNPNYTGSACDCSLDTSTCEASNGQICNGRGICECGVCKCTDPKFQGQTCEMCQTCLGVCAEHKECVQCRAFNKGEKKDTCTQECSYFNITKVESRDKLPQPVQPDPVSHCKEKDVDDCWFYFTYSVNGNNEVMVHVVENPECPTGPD
# Run Description: Competition binding studies by Biolayer Interferometry (epitope groups)
# Condition Description: immobilized mAb A2-7A05; secondary mAb pre-mixed with 20 nM rh-α5β1
Assign Response (nm) to each entry below.
Answers are plain numbers, in nm.

A2-7F01: anti-α5β1 antibody, VH SEQ ID NO:91, VL SEQ ID NO:92 (antibody, V domains shown, A2-7F01 VH Sequence; A2-7F01 VL Sequence) VH: QVQLQQPGAELVKPGASVKLSCKASGYTFTIYWINWVKQRPGQGLEWIGNIYPGSSSTNYNEKFKTKATLTVDTSSSTAYMQLSSLTSDDSAVYYCAITGTGGFAYWGQGTLVTVSA VL: ENVLTQSPAIMSASLGEKVTMSCRASSSVNYMYWYQQKSDASPKLWIYFTSSLAPGVPTRFSGSGSGNSFSLTISSMEGEDAATYYCQQLTGSPFTFGSGTRLEIK    −0.17

Please find the next molecule below.
What value of Response (nm) has been reported for the following molecule? C-14D12: anti-α5β1 antibody, VH SEQ ID NO:109, VL SEQ ID NO:110; tested as mouse hybridoma antibody and as human IgG4 chimera (antibody, V domains shown, C-14D12 VH Sequence; C-14D12 VL Sequence, tested as mouse hybridoma antibody and as human IgG4 chimera) VH: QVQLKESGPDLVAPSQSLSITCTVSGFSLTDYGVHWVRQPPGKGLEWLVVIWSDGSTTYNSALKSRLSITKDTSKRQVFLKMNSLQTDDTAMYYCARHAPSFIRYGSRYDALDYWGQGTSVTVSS VL: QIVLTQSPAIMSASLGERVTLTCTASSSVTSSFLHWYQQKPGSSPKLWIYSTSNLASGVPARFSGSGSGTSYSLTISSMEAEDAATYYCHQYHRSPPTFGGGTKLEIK
0.11
